# experimental target: VvGT15b (Vitis vinifera, UniProt F6GUW0)
# Sequence (F6GUW0 entry or part of it): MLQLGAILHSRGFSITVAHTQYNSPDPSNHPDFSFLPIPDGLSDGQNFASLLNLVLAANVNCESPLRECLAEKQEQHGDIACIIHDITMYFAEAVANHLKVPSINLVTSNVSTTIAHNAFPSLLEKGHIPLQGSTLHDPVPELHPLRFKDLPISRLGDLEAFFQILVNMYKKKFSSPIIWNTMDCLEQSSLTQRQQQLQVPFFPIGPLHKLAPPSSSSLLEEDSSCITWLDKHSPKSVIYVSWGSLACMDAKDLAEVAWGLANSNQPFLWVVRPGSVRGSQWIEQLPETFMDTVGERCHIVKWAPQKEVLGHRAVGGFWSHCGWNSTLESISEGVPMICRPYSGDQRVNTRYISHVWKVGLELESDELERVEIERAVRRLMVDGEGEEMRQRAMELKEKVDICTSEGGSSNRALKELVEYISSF
# Format: biochemical
# particulars: substrates at fixed UDP-glucose 833 µM; UDP-glucose at constant geraniol 1.25 mM; Tris-HCl pH 7.5, 30 °C
Assignment: determine reported Km for the given molecules.
Answer as a quantity: numeral, then unit.

Previously resolved entries follow.
INSERT INTO results (molecule, readout_label, reported_result) VALUES
  ('CC(C)=CCC/C(C)=C\CO [Nerol, (Z)-3,7-dimethyl-2,6-octadien-1-ol]', 'Km', '40 µM'),
  ('C=CC(C)(O)CCC=C(C)CO (stereo not shown) [8-hydroxylinalool]', 'Km', '33 µM'),
  ('CC(C)=CCC[C@H](C)CCO', 'Km', '55 µM');

Okay, now this molecule:
Entry CC(C)=CCC/C(C)=C/CO [Geraniol, (E)-3,7-dimethyl-2,6-octadien-1-ol] — recorded Km = 81 µM

====

# experimental target: VvGT14a (Vitis vinifera)
# Sequence (F6H0R6 entry or part of it): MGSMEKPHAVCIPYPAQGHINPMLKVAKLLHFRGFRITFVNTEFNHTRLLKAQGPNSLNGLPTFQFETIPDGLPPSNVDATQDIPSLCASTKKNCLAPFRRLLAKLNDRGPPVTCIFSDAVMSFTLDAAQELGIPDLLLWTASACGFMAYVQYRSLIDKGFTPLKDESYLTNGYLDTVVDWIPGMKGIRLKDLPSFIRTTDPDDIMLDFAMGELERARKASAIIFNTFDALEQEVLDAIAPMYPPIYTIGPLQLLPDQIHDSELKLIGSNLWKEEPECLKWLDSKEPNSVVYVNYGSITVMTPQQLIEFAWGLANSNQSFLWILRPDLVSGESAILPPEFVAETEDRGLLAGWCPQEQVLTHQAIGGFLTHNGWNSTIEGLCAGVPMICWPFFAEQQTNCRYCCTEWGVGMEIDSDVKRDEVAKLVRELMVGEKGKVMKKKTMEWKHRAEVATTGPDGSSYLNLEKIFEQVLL
# measurement notes: Substrate screening, radiochemical activity assay with UDP-[14C]glucose
# Type: biochemical
# particulars: substrate screening, Figure 3
readout label: conversion of putative substrate (in words)

INSERT INTO measurements (compound, reported_result) VALUES
  ('C=CCc1ccc(O)c(OC)c1 [eugenol]', 'catalytic activity'),
  ('CC(C)=CCO [3-methyl-2-butenol]', 'catalytic activity'),
  ('C=CC(C)(O)CCC=C(C)CO (stereo not drawn) [8-hydroxylinalool]', 'catalytic activity'),
  ('CCC/C=C/CO [trans 2-hexenol]', 'catalytic activity'),
  ('C=C(C)CCO [3-methyl-3-butenol]', 'catalytic activity'),
  ('CC(C)=CCCC(C)=CCCC(C)=CCO [farnesol]', 'catalytic activity'),
  ('CC/C=C\CCO [cis 3-hexenol]', 'catalytic activity'),
  ('CC(C)=CCC/C(C)=C/CO [Geraniol, (E)-3,7-dimethyl-2,6-octadien-1-ol]', 'preferred'),
  ('N#CC(O)c1ccccc1 (stereo not drawn) [mandelonitrile]', 'catalytic activity'),
  ('OCc1ccccc1 [benzyl alcohol]', 'catalytic activity');

Please state conversion of putative substrate (in words) for every compound in the list that follows.
1. C=CC(C)(O)CCC=C(C)C (racemic) [linalool (rac), (R,S)-3,7-dimethyl-1,6-octadien-3-ol]
2. CC(C)=CCCC(C)CCO (racemic) [citronellol (rac), (R,S)-3,7-dimethyl-6-octen-1-ol]

[out]
1. catalytic activity
2. preferred
